# target.of.assay: human 5-HT2B receptor (Homo sapiens)
# Construct: expressed in transfected cells; host or cells: CHO-FlpIn
# Sequence (P41595 whole entry): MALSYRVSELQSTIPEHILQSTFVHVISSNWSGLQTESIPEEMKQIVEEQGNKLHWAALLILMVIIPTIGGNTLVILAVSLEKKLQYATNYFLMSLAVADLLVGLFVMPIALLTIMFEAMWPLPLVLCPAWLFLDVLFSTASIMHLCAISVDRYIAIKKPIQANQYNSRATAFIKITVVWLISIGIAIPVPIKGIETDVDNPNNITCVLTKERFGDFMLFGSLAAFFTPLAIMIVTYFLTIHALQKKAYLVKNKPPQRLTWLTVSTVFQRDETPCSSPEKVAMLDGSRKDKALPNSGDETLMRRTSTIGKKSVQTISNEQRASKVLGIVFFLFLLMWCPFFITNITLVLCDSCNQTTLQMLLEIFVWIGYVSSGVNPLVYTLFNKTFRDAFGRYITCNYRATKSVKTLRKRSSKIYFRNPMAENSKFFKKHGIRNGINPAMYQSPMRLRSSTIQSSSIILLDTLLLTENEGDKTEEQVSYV
# assay.comment: Human 5-HT2B functional assay (calcium mobilisation in CHO-FlpIn cells, FLIPR)
# Format: cell-based
# experimental.parameters: based on agonism: EC50 5-HT2B/EC50 5-HT2C
reported.endpoint: Selectivity over 5-HT2B

# example entries with known answers
compound="COC[C@@H]1C[C@@H]2CNCCN2c2cc(F)cc(F)c2O1.Cl [Example 11]" reported_endpoint="Selectivity over 5-HT2B" result="++ (from >30 to 100)"
compound="COC[C@@H]1C[C@@H]2CNCCN2c2cc(Cl)ccc2O1.Cl [Example 10]" reported_endpoint="Selectivity over 5-HT2B" result="++ (from >30 to 100)"
compound="COC[C@@H]1C[C@@H]2CNCCN2c2c(F)c(F)cc(C(F)(F)F)c2O1.Cl [Example 56]" reported_endpoint="Selectivity over 5-HT2B" result="+++ (>100)"
compound="COC[C@@H]1C[C@@H]2CNCCN2c2c(ccc(F)c2F)O1.Cl [Example 21]" reported_endpoint="Selectivity over 5-HT2B" result="++ (from >30 to 100)"
compound="COC[C@@H]1C[C@@H]2CNCCN2c2c(F)c(F)cc(Cl)c2O1.Cl [Example 16]" reported_endpoint="Selectivity over 5-HT2B" result="+++ (>100)"
compound="COC[C@@H]1C[C@@H]2CNCCN2c2cccc(Cl)c2O1.Cl [Example 1]" reported_endpoint="Selectivity over 5-HT2B" result="+++ (>100)"

Now, please, on to the next compound.
Ask: Determine from records and report Selectivity over 5-HT2B for COC[C@@H]1C[C@@H]2CNCCN2c2c(F)c(F)c(F)c(Cl)c2O1.Cl [Example 55]
Result: +++ (>100)

---

# target.of.assay: human 5-HT2A receptor (Homo sapiens, UniProt P28223)
# Construct: expressed in transfected cells; host or cells: CHO-K1
# Sequence (P28223 whole entry): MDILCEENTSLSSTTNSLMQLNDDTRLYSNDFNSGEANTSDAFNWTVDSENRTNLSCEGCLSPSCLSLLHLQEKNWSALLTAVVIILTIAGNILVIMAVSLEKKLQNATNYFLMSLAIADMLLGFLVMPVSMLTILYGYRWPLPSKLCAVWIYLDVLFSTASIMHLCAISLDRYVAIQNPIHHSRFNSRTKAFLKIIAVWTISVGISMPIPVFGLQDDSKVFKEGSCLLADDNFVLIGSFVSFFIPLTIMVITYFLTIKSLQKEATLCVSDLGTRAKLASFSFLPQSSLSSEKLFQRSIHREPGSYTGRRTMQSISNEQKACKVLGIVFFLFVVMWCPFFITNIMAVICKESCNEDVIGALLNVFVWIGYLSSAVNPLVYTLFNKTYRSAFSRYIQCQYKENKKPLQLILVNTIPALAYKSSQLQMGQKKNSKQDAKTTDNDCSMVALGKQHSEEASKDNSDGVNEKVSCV
# assay.comment: Human 5-HT2A functional assay (calcium mobilisation in CHO-K1 cells, FLIPR)
# Format: cell-based
# experimental.parameters: based on agonism: EC50 5-HT2A/EC50 5-HT2C
reported.endpoint: Selectivity over 5-HT2A

These solved cases illustrate the format of a correct answer.
compound="COC[C@@H]1C[C@@H]2CNCCN2c2ccc(F)cc2O1.Cl [Example 51]" result="+ (from 10 to 30)"
compound="COC[C@@H]1C[C@@H]2CNCCN2c2c(F)c(F)cc(F)c2O1.O=C(O)/C=C/C(=O)O [Example 18]" result="+++ (>100)"
compound="COC[C@@H]1C[C@@H]2CNCCN2c2cc(Cl)cc(F)c2O1 [Example 25]" result="+++ (>100)"
compound="COC[C@@H]1C[C@@H]2CNCCN2c2cccc(C(F)F)c2O1.Cl [Example 6]" result="+++ (>100)"
compound="COC[C@@H]1C[C@@H]2CNCCN2c2cc(F)cc(C(F)F)c2O1.Cl [Example 9]" result="+++ (>100)"
compound="COC[C@@H]1C[C@@H]2CNCCN2c2cccc(F)c2O1.Cl [Example 50]" result="++ (from >30 to 100)"

Ask: Could you please provide reported Selectivity over 5-HT2A for COC[C@@H]1C[C@@H]2CNCCN2c2cccc(OC(F)F)c2O1 [Example 42] ? Thanks!
Result: + (from 10 to 30)

Ask: Give recorded Selectivity over 5-HT2A. COC[C@@H]1C[C@@H]2CNCCN2c2cc(F)c(F)c(Cl)c2O1.Cl [Example 38]
Result: ++ (from >30 to 100)

Ask: Tell us which Selectivity over 5-HT2A value is on record for COC[C@@H]1C[C@@H]2CNCCN2c2cc(Cl)ccc2O1.Cl [Example 10]
Result: ++ (from >30 to 100)

Ask: Quote Selectivity over 5-HT2A reported for C#Cc1cc(F)c2c(c1)N1CCNC[C@H]1C[C@@H](COC)O2.O=C(O)C(O)C(O)C(=O)O [Example 36] please.
Result: + (from 10 to 30)

Ask: Report Selectivity over 5-HT2A for COC[C@@H]1C[C@@H]2CNCCN2c2ccccc2O1.O=C(O)C(F)(F)F [Example 3]
Result: + (from 10 to 30)

Ask: Write down Selectivity over 5-HT2A measured for item Cl.Fc1cc(Cl)c2c(c1)N1CCNC[C@H]1C[C@@H](COC(F)F)O2 [Example 24]
Result: +++ (>100)

Ask: Give Selectivity over 5-HT2A for the following compound: COC[C@@H]1C[C@@H]2CNCCN2c2ccc(C)c(F)c2O1 [Example 30]
Result: ++ (from >30 to 100)

Ask: Using known records, supply Selectivity over 5-HT2A for COC[C@@H]1C[C@@H]2CNCCN2c2cccc(Cl)c2O1.Cl [Example 1]
Result: +++ (>100)

Ask: Please report Selectivity over 5-HT2A for the following compound: COC[C@@H]1C[C@@H]2CNCCN2c2c(ccc(F)c2F)O1.Cl [Example 21]
Result: ++ (from >30 to 100)
